Target: human HP1α chromoshadow domain (CSD), recombinant (human)
Sequence (chain, as listed by the source): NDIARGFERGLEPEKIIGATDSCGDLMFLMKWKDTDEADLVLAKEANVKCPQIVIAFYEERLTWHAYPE
Experiment: ITC
pKd: recorded values
Friendly reminder that pKd comes from taking -log10 of the concentration in mol/L.

For record YHTQCQLVPVVEIGISERQNAEQHVTQLMSTEPL (domain or fragment) [human INCENP (160-192), untagged version (Tyr-added), GST removed] the listed pKd is 7.41

New cases:
For record human INCENP (160-210) -6His, GST removed (domain or fragment) HTQCQLVPVVEIGISERQNAEQHVTQLMSTEPLPRTLSPTPASATAPTSQG the listed pKd is 7.41
